The origin of these recorded values is the supplement of paper PMC9233669.

# System: biotinyl-Leu-oxazolone
# Assay Text: self-aminoacylation, catalytic enhancement (BLO) (fold over background); higher = more active; k-Seq, kA / k0A0; sequences stand for … in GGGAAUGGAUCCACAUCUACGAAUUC…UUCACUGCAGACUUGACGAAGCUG
Variants at the floor of the assay were thinned out.
Provide the recorded self-aminoacylation for the entries that follow.
Just the number.

Data request: Quick check: self-aminoacylation of CUACACUUCAAGCAAUCGGGC [Fam1B.1 aminoacylation ribozyme variant] ?
Data returned: 1.27

Data request: Please give the measured self-aminoacylation for this sequence: AUUACCCGGGGCAUCGAGUGA [Fam2.1 aminoacylation ribozyme variant]
Data returned: 10.2

Data request: Name the recorded self-aminoacylation for AUUCGCCUAGGUCUUCGGGUG [Fam2.2 aminoacylation ribozyme variant] .
Data returned: 8.57

Data request: self-aminoacylation lookup needed for CUUAGCCUGGUCAUCGAGUGA [Fam2.1 aminoacylation ribozyme variant] , thanks.
Data returned: 3.38

Data request: Fill blank: measured self-aminoacylation of the sequence CCACACUCCACGCAAUCGGUC [Fam1B.1 aminoacylation ribozyme variant] is ____.
Data returned: 1.2

Data request: So what does the record say about self-aminoacylation for AUUCACCUAGGUCAUCGGGCA [Fam2.2 aminoacylation ribozyme variant] ?
Data returned: 5.57

Data request: For the sequence shown here, AUUCCCUUGGUCAUCGAGUGA [Fam2.1 aminoacylation ribozyme variant] , give the reported self-aminoacylation.
Data returned: 12.3

Data request: Dear colleague, I am looking for the recorded self-aminoacylation of the following sequence: AGGUUUGCUACUAGUCGCAAG [Fam3.1 aminoacylation ribozyme variant]
Data returned: 1.84

Data request: Entry CUACUUCAAUCAAUCGGUUUG [Fam1A.1 aminoacylation ribozyme variant] has what self-aminoacylation?
Data returned: 1.21

Data request: Item under review: AGUACCCUGGUCAUCGCGUGA [Fam2.1 aminoacylation ribozyme variant] . Reported self-aminoacylation?
Data returned: 20.3

Data request: Entry AUUUCCCUGGUCAUCAAGUGA [Fam2.1 aminoacylation ribozyme variant] : reported self-aminoacylation = ?
Data returned: 2.2

Data request: Which self-aminoacylation value is on record for AUACACCUAGGUCAUCGGGCG [Fam2.2 aminoacylation ribozyme variant] ?
Data returned: 2.58

Data request: For the sequence CUAGUUCAAACACUCGGUCUG [Fam1A.1 aminoacylation ribozyme variant] , what self-aminoacylation is on record?
Data returned: 1.48

Data request: Could you share which self-aminoacylation value was measured for AAGUUUGCCAAUAGUCGUAAG [Fam3.1 aminoacylation ribozyme variant] ?
Data returned: 0.724

Data request: Look up self-aminoacylation: GUUAGCCUGGUCAUCGAGUGA [Fam2.1 aminoacylation ribozyme variant]
Data returned: 7.66

Data request: Recorded self-aminoacylation of AAAUUUGCUAAUAGUCCCAAG [Fam3.1 aminoacylation ribozyme variant] , please.
Data returned: 0.923

Data request: Query (sequence): AUUCACCUAGGUCAUCGGGAC [Fam2.2 aminoacylation ribozyme variant] ; field requested: self-aminoacylation
Data returned: 3

Data request: Suppose we examine the sequence CUACUACAUACAAUCGGUCUG [Fam1A.1 aminoacylation ribozyme variant] ; what self-aminoacylation value has been reported?
Data returned: 0.641

====

# Tested on: biotinyl-Phe-oxazolone
# Assay Text: self-aminoacylation, catalytic enhancement (BFO) (fold over background); higher = more active; k-Seq, kA / k0A0; sequences stand for … in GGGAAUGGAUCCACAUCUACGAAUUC…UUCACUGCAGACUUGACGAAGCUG
Variants at the floor of the assay were thinned out.
Measured Metric: self-aminoacylation

Data request: Entry AUUCACCUAGGUCAUUGAGUG [Fam2.2 aminoacylation ribozyme variant] : reported self-aminoacylation = ?
Data returned: 12.3

Data request: Which measured self-aminoacylation value corresponds to CCACACCUCAAGCAUUCGGUC [Fam1B.1 aminoacylation ribozyme variant] ?
Data returned: 2.12

Data request: For AUUACCCUGGUCAUCGCGAGA [Fam2.1 aminoacylation ribozyme variant] , what is its reported self-aminoacylation?
Data returned: 1.58

Data request: Any idea what its self-aminoacylation is? The sequence is CUACUUCCAGCAAUCGGUCUG [Fam1A.1 aminoacylation ribozyme variant]
Data returned: 0.605

Data request: Fill in: self-aminoacylation of AUUCGCCUAGGUCAUCGGGCG [Fam2.2 aminoacylation ribozyme variant] is ___
Data returned: 2.39

Data request: Requested read-out: self-aminoacylation. Entry: AUUACCCUGCCCAUCGAGUGA [Fam2.1 aminoacylation ribozyme variant]
Data returned: 38.9

Data request: Fill blank: measured self-aminoacylation of the sequence AAGUAUGCUAAUAGUCGCAAU [Fam3.1 aminoacylation ribozyme variant] is ____.
Data returned: 1.96

Data request: State the recorded self-aminoacylation for this entry: UCACUCUUCAAGCAAUCGGUC [Fam1B.1 aminoacylation ribozyme variant]
Data returned: 27

Data request: For UUUACCCUGGUCAUCGAAUGA [Fam2.1 aminoacylation ribozyme variant] , what is its reported self-aminoacylation?
Data returned: 1.02

====

Task for the reader: assign each of the following sequences its reported self-aminoacylation.
# System: biotinyl-Met-oxazolone
# Assay Text: self-aminoacylation, catalytic enhancement (BMO) (fold over background); higher = more active; k-Seq, kA / k0A0; sequences stand for … in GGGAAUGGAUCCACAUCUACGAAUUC…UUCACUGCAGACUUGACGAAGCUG
This sample holds only a part of the variants without activity.
Could you keep your reply to the number by itself?

Data request: What does the data say about its self-aminoacylation? Entry: AGUACCCUGGUCAGCGAGUGA [Fam2.1 aminoacylation ribozyme variant]
Data returned: 4.42

Data request: Quick one: self-aminoacylation of AUUCACCUAGGUCAUCGGGAC [Fam2.2 aminoacylation ribozyme variant] ?
Data returned: 2.56

Data request: Dear colleague, I am looking for the recorded self-aminoacylation of the following sequence: AAGUUCGCAAAUAGUCGCAAG [Fam3.1 aminoacylation ribozyme variant]
Data returned: 2.13

Data request: Query (sequence): AUUCACCUAGUACAUCGGGUG [Fam2.2 aminoacylation ribozyme variant] ; field requested: self-aminoacylation
Data returned: 2.21

Data request: # lookup: self-aminoacylation of AAGUUUCUUAAUAGUCGCAAG [Fam3.1 aminoacylation ribozyme variant]
Data returned: 1.56

Data request: # get_value(readout='self-aminoacylation', item= AUUACCCUGGUCAUCUAGUCA [Fam2.1 aminoacylation ribozyme variant] )
Data returned: 0.578

Data request: So what's the measured self-aminoacylation for this one? CCACACUUCAAGCAUUCGGCC [Fam1B.1 aminoacylation ribozyme variant]
Data returned: 1.25

Data request: Fill in the blank: the reported self-aminoacylation of AAGUUUACUAAUAGUCGCAAA [Fam3.1 aminoacylation ribozyme variant] is ____.
Data returned: 1.44

Data request: Which self-aminoacylation reading was recorded for the sequence CCAGACUUCAAGCAUUCGGUC [Fam1B.1 aminoacylation ribozyme variant] ?
Data returned: 2.12

====

# Tested on: biotinyl-Val-oxazolone
# Assay Text: self-aminoacylation, catalytic enhancement (BVO) (fold over background); higher = more active; k-Seq, kA / k0A0; sequences stand for … in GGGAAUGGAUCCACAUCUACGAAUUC…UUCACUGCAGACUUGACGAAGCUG
This sample holds only a part of the variants without activity.
Measured Metric: self-aminoacylation
Please reply with the number alone, leaving off any unit.

Data request: Query: self-aminoacylation; subject: CCAAACUUCAAGCCAUCGGUC [Fam1B.1 aminoacylation ribozyme variant]
Data returned: 1.18

Data request: Looking for the measured self-aminoacylation of AUUACCCUGGUCCUCAAGUGA [Fam2.1 aminoacylation ribozyme variant] , can you help?
Data returned: 2.02

Data request: // self-aminoacylation lookup, key: AAGUUUGCUAAUAGUAGCGAG [Fam3.1 aminoacylation ribozyme variant]
Data returned: 1

Data request: Could you share which self-aminoacylation value was measured for CUUCUUCAAACAGUCGGUCUG [Fam1A.1 aminoacylation ribozyme variant] ?
Data returned: 0.771

Data request: State the recorded self-aminoacylation for this entry: CCACACUCCAAGCAAUCGGAC [Fam1B.1 aminoacylation ribozyme variant]
Data returned: 0.937

Data request: Which value of self-aminoacylation has been reported for AUUACCCUGGUCACGGAGUGA [Fam2.1 aminoacylation ribozyme variant] in the records?
Data returned: 3.92

Data request: Recorded self-aminoacylation for AUCACCCUCGUCAUCGAGUGA [Fam2.1 aminoacylation ribozyme variant] , please?
Data returned: 2.36

Data request: What value of self-aminoacylation has been recorded for this entry: AUUCAUCUAGGUCUUCGGGUG [Fam2.2 aminoacylation ribozyme variant]
Data returned: 3.66

Data request: What value of measured self-aminoacylation is listed for CCACACGUCAAGAAAUCGGUC [Fam1B.1 aminoacylation ribozyme variant] ?
Data returned: 1.44

Data request: # self-aminoacylation lookup, item AUUCAUCUAGGUCAUGGGGUG [Fam2.2 aminoacylation ribozyme variant]
Data returned: 3.14

Data request: Given the entry AUUACCCUGCUCAUAGAGUGA [Fam2.1 aminoacylation ribozyme variant] , report its measured self-aminoacylation.
Data returned: 4.28

Data request: Suppose we examine the sequence CUACUUCAAAGAAUCGAUCUG [Fam1A.1 aminoacylation ribozyme variant] ; what self-aminoacylation value has been reported?
Data returned: 0.595

Data request: Can you look up the measured self-aminoacylation of AUUCUCCUAGGCCAUCGGGUG [Fam2.2 aminoacylation ribozyme variant] for me?
Data returned: 3.74

Data request: Given the sequence AAGUUUACUAAUAGUCACAAG [Fam3.1 aminoacylation ribozyme variant] , what is its reported self-aminoacylation?
Data returned: 1.44

Data request: Endpoint output: self-aminoacylation of AUUCACCUAGGUCAUCAGGAG [Fam2.2 aminoacylation ribozyme variant] . Value?
Data returned: 1.09

Data request: Need self-aminoacylation, item GUUCACCUAGCUCAUCGGGUG [Fam2.2 aminoacylation ribozyme variant]
Data returned: 1.91

Data request: Entry AUUACCCUUGUCAUCAAGUGA [Fam2.1 aminoacylation ribozyme variant] : reported self-aminoacylation = ?
Data returned: 2.77

Data request: Dear colleague, I am looking for the recorded self-aminoacylation of the following sequence: AUUACCCUGGUCACCGAGUCA [Fam2.1 aminoacylation ribozyme variant]
Data returned: 1.49

Data request: Request the reported self-aminoacylation associated with CUACUUCAAACAAUCGGCCUC [Fam1A.1 aminoacylation ribozyme variant]
Data returned: 1.88

Data request: Requested field: self-aminoacylation. Item: AUUCAACUCGGUCAUCGGGUG [Fam2.2 aminoacylation ribozyme variant]
Data returned: 3.84

Data request: Name the reported self-aminoacylation value associated with the sequence CUACUUCAAACAAUCGUUGUG [Fam1A.1 aminoacylation ribozyme variant]
Data returned: 1.15

Data request: Item AUUCACUUAGGUCAUCGGGUC [Fam2.2 aminoacylation ribozyme variant] has what recorded self-aminoacylation?
Data returned: 1.2

Data request: Returns the measured self-aminoacylation for the input sequence. Input: AUUCACCUAGGCCAUCGGUUG [Fam2.2 aminoacylation ribozyme variant]
Data returned: 1.04

Data request: I have this sequence here, ACUCACCUGGGUCAUCGGGUG [Fam2.2 aminoacylation ribozyme variant] , and I need its recorded self-aminoacylation.
Data returned: 4.66

Data request: Item under review: AAGUUUGCUAAUAAUCACAAG [Fam3.1 aminoacylation ribozyme variant] . Reported self-aminoacylation?
Data returned: 0.832

Data request: What value of measured self-aminoacylation is listed for CCACACUUAAGGCAAUCGGUC [Fam1B.1 aminoacylation ribozyme variant] ?
Data returned: 0.981

Data request: State the recorded self-aminoacylation for this entry: CUACUUCAACCAAUCAGUCUG [Fam1A.1 aminoacylation ribozyme variant]
Data returned: 0.701

Data request: # lookup: self-aminoacylation of AUUCACCUAGGUCUUUGGGUG [Fam2.2 aminoacylation ribozyme variant]
Data returned: 4.09

Data request: What measured self-aminoacylation goes with AAGUCUGCUAAUAGUCGCGAG [Fam3.1 aminoacylation ribozyme variant] ?
Data returned: 1.33

Data request: Given the sequence AUUCACGUAGGUCAUCGGGUC [Fam2.2 aminoacylation ribozyme variant] , what is its reported self-aminoacylation?
Data returned: 2.28

Data request: Could you tell me which self-aminoacylation is on file for AUUACCCUGGUCAUCGUCUGA [Fam2.1 aminoacylation ribozyme variant] ?
Data returned: 0.817

Data request: Recorded self-aminoacylation for AUUACCCCGGUCAUCGAGUGU [Fam2.1 aminoacylation ribozyme variant] , please?
Data returned: 1.87

Data request: Which self-aminoacylation reading was recorded for the sequence CUACUUCACACAAUCGGUCUA [Fam1A.1 aminoacylation ribozyme variant] ?
Data returned: 0.834

Data request: // lookup self-aminoacylation for AUUCACAUAGGGCAUCGGGUG [Fam2.2 aminoacylation ribozyme variant]
Data returned: 3.39

Data request: Which self-aminoacylation value is on record for AUACACCUAGGUAAUCGGGUG [Fam2.2 aminoacylation ribozyme variant] ?
Data returned: 2.18
